# test-target: T1, Human CD3eg linker (human)
# T1 construct: Single chain: epsilon and gamma subunits of human CD3 joined by a 29-mer linker, Flag-tag at the C-terminus; also called recombinant human CD3
# T1 chain: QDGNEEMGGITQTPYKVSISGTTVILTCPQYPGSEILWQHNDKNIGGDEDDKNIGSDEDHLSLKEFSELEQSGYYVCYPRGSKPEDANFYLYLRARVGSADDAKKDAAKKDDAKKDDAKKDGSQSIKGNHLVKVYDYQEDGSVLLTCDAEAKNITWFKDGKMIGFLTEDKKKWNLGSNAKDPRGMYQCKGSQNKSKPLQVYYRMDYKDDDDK
# assay-remarks: Biacore SPR, vs template H183/L072
test-readout: fold change of affinity (fold)
Write down the numeric answer in fold and omit the unit.

Please review the entries below; each comes with its answer.
>>> recorded_result("H183/L072 VH K52E (antibody, name in Kabat numbering, V domains shown) VH: QVQLVESGGGLVQPGRSLRLSCAASGFTFSNAWMHWVRQAPGKGLEWVAQIEDKGNAYAAYYAPSVKGRFTISRDDSKNSIYLQMNSLKTEDTAVYYCHYVHYASASTVLPAFGVDAWGQGTTVTVSS VL: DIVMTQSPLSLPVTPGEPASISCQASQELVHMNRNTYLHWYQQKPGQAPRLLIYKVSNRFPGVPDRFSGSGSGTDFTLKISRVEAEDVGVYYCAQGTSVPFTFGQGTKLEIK")
0
>>> recorded_result("H183/L072 VH G52cT (antibody, name in Kabat numbering, V domains shown) VH: QVQLVESGGGLVQPGRSLRLSCAASGFTFSNAWMHWVRQAPGKGLEWVAQIKDKTNAYAAYYAPSVKGRFTISRDDSKNSIYLQMNSLKTEDTAVYYCHYVHYASASTVLPAFGVDAWGQGTTVTVSS VL: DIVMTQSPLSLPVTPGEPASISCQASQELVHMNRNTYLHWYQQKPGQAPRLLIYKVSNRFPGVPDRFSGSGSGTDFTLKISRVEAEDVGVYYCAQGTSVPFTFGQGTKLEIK")
0.9
>>> recorded_result("H183/L072 VH Y55P (antibody, name in Kabat numbering, V domains shown) VH: QVQLVESGGGLVQPGRSLRLSCAASGFTFSNAWMHWVRQAPGKGLEWVAQIKDKGNAPAAYYAPSVKGRFTISRDDSKNSIYLQMNSLKTEDTAVYYCHYVHYASASTVLPAFGVDAWGQGTTVTVSS VL: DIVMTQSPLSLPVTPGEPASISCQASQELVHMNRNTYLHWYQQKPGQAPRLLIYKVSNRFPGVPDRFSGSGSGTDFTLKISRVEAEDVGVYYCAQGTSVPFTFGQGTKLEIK")
0
>>> recorded_result("H183/L072 VH L100dP (antibody, name in Kabat numbering, V domains shown) VH: QVQLVESGGGLVQPGRSLRLSCAASGFTFSNAWMHWVRQAPGKGLEWVAQIKDKGNAYAAYYAPSVKGRFTISRDDSKNSIYLQMNSLKTEDTAVYYCHYVHYASASTVPPAFGVDAWGQGTTVTVSS VL: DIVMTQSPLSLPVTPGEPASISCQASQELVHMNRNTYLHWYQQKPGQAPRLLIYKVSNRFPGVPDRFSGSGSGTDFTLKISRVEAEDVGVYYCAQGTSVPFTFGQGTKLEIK")
1.4
>>> recorded_result("H183/L072 VH M34R (antibody, name in Kabat numbering, V domains shown) VH: QVQLVESGGGLVQPGRSLRLSCAASGFTFSNAWRHWVRQAPGKGLEWVAQIKDKGNAYAAYYAPSVKGRFTISRDDSKNSIYLQMNSLKTEDTAVYYCHYVHYASASTVLPAFGVDAWGQGTTVTVSS VL: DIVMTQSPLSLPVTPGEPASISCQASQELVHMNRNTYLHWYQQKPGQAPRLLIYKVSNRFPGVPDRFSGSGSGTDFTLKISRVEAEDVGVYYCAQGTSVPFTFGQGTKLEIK")
0

Field fold change of affinity (entry H183/L072 VH K52S (antibody, name in Kabat numbering, V domains shown) VH: QVQLVESGGGLVQPGRSLRLSCAASGFTFSNAWMHWVRQAPGKGLEWVAQISDKGNAYAAYYAPSVKGRFTISRDDSKNSIYLQMNSLKTEDTAVYYCHYVHYASASTVLPAFGVDAWGQGTTVTVSS VL: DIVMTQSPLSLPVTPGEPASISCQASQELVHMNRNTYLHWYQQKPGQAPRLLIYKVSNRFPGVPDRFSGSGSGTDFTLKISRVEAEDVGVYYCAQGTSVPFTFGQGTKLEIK ) reads 0

Field fold change of affinity (entry H183/L072 VH A56W (antibody, name in Kabat numbering, V domains shown) VH: QVQLVESGGGLVQPGRSLRLSCAASGFTFSNAWMHWVRQAPGKGLEWVAQIKDKGNAYWAYYAPSVKGRFTISRDDSKNSIYLQMNSLKTEDTAVYYCHYVHYASASTVLPAFGVDAWGQGTTVTVSS VL: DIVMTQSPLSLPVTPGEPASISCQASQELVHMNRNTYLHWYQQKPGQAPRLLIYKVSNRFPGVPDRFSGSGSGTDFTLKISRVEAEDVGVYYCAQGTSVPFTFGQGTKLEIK ) reads 0.8

Field fold change of affinity (entry H183/L072 VH T28I (antibody, name in Kabat numbering, V domains shown) VH: QVQLVESGGGLVQPGRSLRLSCAASGFIFSNAWMHWVRQAPGKGLEWVAQIKDKGNAYAAYYAPSVKGRFTISRDDSKNSIYLQMNSLKTEDTAVYYCHYVHYASASTVLPAFGVDAWGQGTTVTVSS VL: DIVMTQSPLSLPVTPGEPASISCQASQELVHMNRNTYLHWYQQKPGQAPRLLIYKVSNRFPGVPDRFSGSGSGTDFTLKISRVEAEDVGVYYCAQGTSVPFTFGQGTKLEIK ) reads 1.1

Field fold change of affinity (entry H183/L072 VH S99M (antibody, name in Kabat numbering, V domains shown) VH: QVQLVESGGGLVQPGRSLRLSCAASGFTFSNAWMHWVRQAPGKGLEWVAQIKDKGNAYAAYYAPSVKGRFTISRDDSKNSIYLQMNSLKTEDTAVYYCHYVHYAMASTVLPAFGVDAWGQGTTVTVSS VL: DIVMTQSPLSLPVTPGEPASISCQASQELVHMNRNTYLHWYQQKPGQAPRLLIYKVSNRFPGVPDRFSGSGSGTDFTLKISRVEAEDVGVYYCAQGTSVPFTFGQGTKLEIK ) reads 0.9

Field fold change of affinity (entry H183/L072 VH T100bL (antibody, name in Kabat numbering, V domains shown) VH: QVQLVESGGGLVQPGRSLRLSCAASGFTFSNAWMHWVRQAPGKGLEWVAQIKDKGNAYAAYYAPSVKGRFTISRDDSKNSIYLQMNSLKTEDTAVYYCHYVHYASASLVLPAFGVDAWGQGTTVTVSS VL: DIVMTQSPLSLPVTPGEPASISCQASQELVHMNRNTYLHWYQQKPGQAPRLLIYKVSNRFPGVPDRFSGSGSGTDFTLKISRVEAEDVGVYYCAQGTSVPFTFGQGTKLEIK ) reads 1.1
